# Tested on: IGROV1 ovarian
# procedure-summary: NCI-60 one-dose screen, 48 h (100 = growth as untreated, 0 = no growth, -100 = all killed)
# experimental-conditions: 10 µM unless noted
This is part of a sample that, as a whole, favours compounds with a hit. Of some 83,000 tested, about 20% had one in any assay.
Decide using growth: a value greater than or equal to 40% is rule met, a smaller one is rule not met.

COc1ccc(Cl)cc1NC(=O)c1cc2c(n1C)-c1nc(NC(=O)C(C)(C)C)sc1CC2 = rule met
CCN(CC)c1ccc(C2CC(c3cc(OC)c(OC)c(OC)c3)=NN2)cc1 (stereo not given) = rule not met
O=C(Cn1c2ccccc2c2ccncc21)N/N=C\c1ccc2ccccc2c1 = rule met
COc1ccc(C(=O)NC(=O)Nc2ccc3c(c2)NC(=O)/C3=C\c2[nH]c(C)c(C(=O)O)c2C)cc1 = rule met
CN(C)CCCOc1c(Br)cc(/C=C/C(=O)N(C)CCc2cc(Br)c(OCCCN(C)C)c(Br)c2)cc1Br = rule met

###

# Test system: M14 melanoma
# procedure-summary: NCI-60 one-dose screen, 48 h (100 = growth as untreated, 0 = no growth, -100 = all killed)
# experimental-conditions: 10 µM unless noted
Compounds without any hit were thinned out: in the full panel of roughly 83,000, 20% have a hit.
Consider the cut-off 50%. If the recorded growth is strictly smaller, the label is rule met; if not, the label is rule not met.

COc1cc(Br)c(-c2nc(-c3ccccc3)c(-c3ccccc3)n2Cc2ccccc2)cc1OC = rule not met
O=[N+]([O-])c1cccc2cc(S(=O)(=O)O)ccc12 = rule not met
O=c1c2ccccc2sc2c(NCCN3CCOCC3)nc3ccccc3c12 = rule met
COc1ccc(-c2cc(-c3nnc(SC/C(=N\O)c4ccccc4)n3-c3ccccc3)c3ccccc3n2)cc1 = rule not met
Cl[C@@H]1CCO[C@H](c2cc3ccccc3c3ccccc23)C1 = rule not met

###

# Test system: LOX IMVI melanoma
# procedure-summary: NCI-60 one-dose screen, 48 h (100 = growth as untreated, 0 = no growth, -100 = all killed)
# experimental-conditions: 10 µM unless noted
About 83,000 compounds went through this panel and 20% of them were active in at least one assay; those are over-represented in the sample as a whole.
readout-kind: growth (%)

N#CC1=C(N)Oc2c(ccc3ccccc23)C1c1cc(=O)oc2ccc(Cl)cc12 (stereo not given) = 42
CCOc1ccc(NC2=C(Cl)C(=O)c3ccccc3C2=O)cc1 = -89.7
Nn1c(CN2CCN(c3cc4c(cc3F)c(=O)c(C(=O)O)cn4C3CC3)CC2)n[nH]c1=S = 103
NS(=O)(=O)c1ccc(CCN2C(=O)/C(=C\c3ccc(Cl)cc3)C=C2c2ccc(Oc3ccccc3)cc2)cc1 = 81
c1cncc(-c2nc3ccccc3[nH]2)c1 = 94.4
CCCOC(=O)c1ccc([N+](=O)[O-])o1 = 101
C/C(=N\N=C1/SCC(=O)N1c1ccccc1)c1ccco1 = 94.2
O=C(O)c1cccc(S(=O)(=O)c2ccccc2)c1 = 99
COc1cc2c(cc1OC)-c1c(oc3c4c(ccc3c1=O)OC(C)(C)C=C4)CO2 = 63
C[C@]12CC[C@@H]3c4ccc(O)c(N)c4CC[C@H]3[C@@H]1CC[C@@H]2O = 96.7

###

# System: NCI/ADR-RES ovarian
# procedure-summary: NCI-60 one-dose screen, 48 h (100 = growth as untreated, 0 = no growth, -100 = all killed)
# experimental-conditions: 10 µM unless noted
Compounds without any hit were thinned out: in the full panel of roughly 83,000, 20% have a hit.
In this section we review reported growth values for a set of compounds.
readout-kind: growth (%)

Nc1ccc(S(=O)(=O)Nc2ccnn2-c2ccccc2)cc1 = 103
O=C1C(SCCO)=C(SCCO)C(=O)N1c1ccc(-c2ccccc2)cc1 = 104
COc1cc(Cn2cc3c(c2)-c2onc(CO)c2CC3)cc(OC)c1OC = 93.8
COc1cc2c(cc1OCCCCC(=O)Nc1ccc(-c3nc4ccccc4s3)cc1)N=C[C@@H]1CCCN1C2=O = 67.6
O=C(NCCNc1nccc(-c2c(-c3cccc(O)c3)nc3sccn23)n1)Nc1cccc(C(F)(F)F)c1 = 108
c1cncc(-c2nc3ccccc3[nH]2)c1 = 96.1
Cc1ccc(/C=C2/C(=O)Nc3cc(Cl)c(-c4csc(N)n4)cc32)cc1 = 82.9
CC(=O)N[C@@H](CNC(=O)c1cc(NC(=O)c2cc(NC(=O)c3cc(NC(=O)c4nccn4C)cn3C)cn2C)cn1C)CC(=O)Nc1cn(C)c(C(=O)Nc2cc(C(=O)Nc3cc(C(=O)Nc4cc(C(=O)NCCCN(C)CCCNC(=O)c5cccc(C(=O)O)c5)n(C)c4)n(C)c3)n(C)c2)n1 = 87.4
COc1ccccc1N1CCN(CC(O)COc2c(Br)c(Br)c(Br)c3c2OC(C)(C)C3)CC1 (configuration not stated) = 45.7
C=CC(C)(O)CCC1C(=C)CCC2C(C)(C)CCCC12C (configuration not stated) = 101
COc1ccc(SC2c3ccc(O)cc3Oc3nc(N)c(C#N)c(N)c32)cc1 (configuration not stated) = 98.8
CCN(CC)CCNC(=O)c1c(C)[nH]c(/C=C2\C(=O)Nc3cc(NC(=O)NC(=O)c4ccc(OC)cc4F)ccc32)c1C = 88.3
CNC(=O)NN = 105
CC(=O)CC/C=C(\C)[C@H](O)[C@H](C)C(=O)O[C@H]1C[C@H](C)C=C2C=C[C@@]3(C)O[C@@H](O)CC(=O)[C@]3(C)[C@H]21 = 0.0427
C=C1C(=O)O[C@H]2[C@H]1CC/C(COC(=O)c1cc(OC)c(OC)c(OC)c1)=C\CC[C@@]1(C)O[C@@H]21 = 10.9
COC(=O)/C=C/C(=O)c1cc(C)cc(C)c1O = 99.5
CCC1S/C(=N\N=C(/C)c2ccco2)N(c2ccccc2)C1=O (configuration not stated) = 105
COc1ccc2c(-c3ccc(F)cc3)c(C#N)c(=NC(C)=O)oc2c1 = 31.2
COc1cc(Nc2ncccc2C(=O)Nc2nc3ccc(F)cc3s2)cc(OC)c1OC = 67.2
O=C(O)c1cccc2oc(-c3ccccc3O)nc12 = 19.8
COc1ccc(-c2nnc(NC(=O)CN3CCN(c4cc5c(cc4F)c(=O)c(C(=O)O)cn5C4CC4)CC3)s2)cc1OC = 103
O=C(Nc1ccc(Cl)c(Cl)c1)Nc1ccc(Cl)c([N+](=O)[O-])c1 = -7.67
Cc1cccc[n+]1CCC[n+]1ccccc1C = 106
Cl[C@@H]1CCO[C@H](c2cc3ccccc3c3ccccc23)C1 = 103
O=C(Nc1ccc(-n2ccc3c(NC(=O)c4ccccc4)nccc32)cc1)c1cccc(C(F)(F)F)c1 = 19.8
C=C1c2c(Cl)ccc(O)c2C(O)=C2C(=O)[C@]3(O)C(O)=C(C(N)=O)C(=O)[C@@H](N(C)C)[C@@H]3[C@@H](O)[C@H]12 = 61.2
Nn1c(SCC(=O)Nc2cc(Cl)c(Cl)cc2Cl)nnc1-c1cc(F)c(Cl)cc1Cl = 99.7
CC(C)C1(C(C)C)NC(=O)NC1=O = 103
CCCCCCCC(=O)SCC/C=C/[C@@H]1CC(=O)NCc2nc(cs2)C2=N[C@@](C)(CS2)C(=O)N[C@@H](C(C)C)C(=O)N1 = 84.5
Nc1nc(Nc2ccc(OCc3cccc(F)c3)cc2)c2c(n1)[nH]c1ccc(O)cc12 = 32.3
Cc1ccc(=O)n(-c2ccc(Br)cc2F)c1 = 104
COc1ccc(/C=C/C(=O)c2ccc(-n3cc(CN4CCN(c5cc6c(cc5F)c(=O)c(C(=O)O)cn6C5CC5)CC4)nn3)cc2)cc1OC = 82
O=C(COc1ccc(Cl)cc1)N1CCN(Cc2ccc3c(c2)OCO3)CC1 = 92.6
O=C(O)c1ccc(-c2nn(-c3ccc(C(=O)O)cc3)cc2/C=N/Nc2c(F)c(F)cc(F)c2F)cc1 = 105
Clc1ccc(OCc2nc(-c3ccccc3)n[nH]2)c(Cl)c1 = 101
Cc1cn(C2CC(F)C(CO)O2)c(=O)[nH]c1=O (configuration not stated) = 86.5
C=C1C(=O)O[C@H]2[C@H]1CC/C(CNC(=O)/C1=C/CC[C@@]3(C)O[C@H]3[C@H]3OC(=O)C(=C)[C@@H]3CC1)=C\CC[C@@]1(C)O[C@@H]21 = 99.7

###

# Tested on: SR leukemia
# procedure-summary: NCI-60 one-dose screen, 48 h (100 = growth as untreated, 0 = no growth, -100 = all killed)
# experimental-conditions: 10 µM unless noted
This is part of a sample that, as a whole, favours compounds with a hit. Of some 83,000 tested, about 20% had one in any assay. Active and inactive are the calls of the source. The calls were made as follows: active = growth percent below 10; inactive = the rest.
readout-kind: growth

[2H]c1nc(Nc2ncc(F)c(-c3cc(F)c4nc(C)n(C(C)C)c4c3)n2)c([2H])c([2H])c1CN1CCN(CC)CC1 = 11.7% (inactive)
COc1cc(NS(=O)(=O)c2ccc(N)cc2)ncn1 = 97.2% (inactive)
O=C(N/N=C/c1ccccc1O)c1ccccc1O = 17.1% (inactive)
COc1ccc(OCC(O)CN2CCN(c3ccc(Cl)cc3)CC2)cc1 (stereo not given) = 112% (inactive)
COc1ccccc1P(c1ccccc1OC)c1ccccc1OC = 107% (inactive)
CCn1cc(C(=O)O)c(=O)c2cc(F)c(N3CCN(CC(=O)Nc4ccc(C(C)=O)cc4)CC3)cc21 = 91.9% (inactive)
COc1cc2ncn3c(=O)c4c5c(sc4nc3c2cc1OC)CCCCC5 = 97.9% (inactive)
S=c1n(CNc2ccc(Cl)nn2)nc(-c2cc(Cl)cc(Cl)c2Cl)n1/N=C/c1ccc(Cl)cc1 = 32.5% (inactive)
O=C(O)c1ccc(-n2cc(/C=N/Nc3ccccc3F)c(-c3ccc(O)cc3)n2)cc1 = 73.6% (inactive)
Cc1ccc(-c2cn3cc([N+](=O)[O-])ccc3n2)cc1 = 75.5% (inactive)
